Reported values of fold change (FC) for individual entries
test-target: UniProtKB Q96EB6
Sequence (Q96EB6 whole entry): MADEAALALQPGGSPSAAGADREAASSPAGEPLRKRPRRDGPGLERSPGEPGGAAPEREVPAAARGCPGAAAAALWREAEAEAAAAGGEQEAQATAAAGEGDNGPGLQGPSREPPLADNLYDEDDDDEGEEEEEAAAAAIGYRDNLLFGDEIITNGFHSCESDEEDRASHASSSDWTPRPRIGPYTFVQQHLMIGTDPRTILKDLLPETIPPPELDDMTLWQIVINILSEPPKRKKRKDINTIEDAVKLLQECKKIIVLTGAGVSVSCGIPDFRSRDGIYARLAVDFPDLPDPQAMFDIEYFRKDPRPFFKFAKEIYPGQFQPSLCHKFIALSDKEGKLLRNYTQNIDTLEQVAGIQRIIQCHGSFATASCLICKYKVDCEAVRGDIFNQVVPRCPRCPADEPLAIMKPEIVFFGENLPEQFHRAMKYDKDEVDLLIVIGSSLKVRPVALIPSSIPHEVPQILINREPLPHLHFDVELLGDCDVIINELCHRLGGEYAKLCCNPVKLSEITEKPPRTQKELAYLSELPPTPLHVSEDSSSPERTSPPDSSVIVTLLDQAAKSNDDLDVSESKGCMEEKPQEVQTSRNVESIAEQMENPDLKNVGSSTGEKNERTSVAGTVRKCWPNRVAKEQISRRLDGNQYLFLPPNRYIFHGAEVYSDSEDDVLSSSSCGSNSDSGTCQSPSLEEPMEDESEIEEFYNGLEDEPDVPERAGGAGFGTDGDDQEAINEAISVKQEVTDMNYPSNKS
method: Inhibition of SirT1 in human ARN8 cells assessed as p53 activation at 20 uM by beta-galactosidase reporter gene assay relative to control
Format: cell-based
observation-type: fold change (FC)

INSERT INTO assay_data (structure_smiles_string, observation_type, numeric_result) VALUES
  ('CN(C)CCCCC(=O)Nc1ccc(NC(=S)NC(=O)c2cccc(Br)c2)cc1', 'fold change (FC)', 1.2),
  ('CN(C)CCCCC(=O)Nc1ccc(NC(=O)NC(=O)c2ccc(C(C)(C)C)cc2)cc1', 'fold change (FC)', 6.5),
  ('CN(C)CCCCC(=O)Nc1ccc(NC(=S)NC(=O)c2ccccc2Cl)cc1', 'fold change (FC)', 1.2),
  ('Cc1ccccc1C(=O)NC(=S)Nc1ccc(NC(=O)CCCCN(C)C)cc1', 'fold change (FC)', 0.84),
  ('CN(C)CCCCC(=O)Nc1ccc(NC(=S)NC(=O)c2ccccc2)cc1', 'fold change (FC)', 0.92),
  ('COc1cccc(C(=O)NC(=S)Nc2ccc(NC(=O)CCCCN(C)C)cc2)c1', 'fold change (FC)', 1.2),
  ('CN(C)CCCCNC(=O)c1ccc(NC(=S)NC(=O)c2ccc(C(C)(C)C)cc2)cc1', 'fold change (FC)', 5.5),
  ('CCCc1ccc(C(=O)NC(=S)Nc2ccc(NC(=O)CCCCN(C)C)cc2)cc1', 'fold change (FC)', 2.4),
  ('CCCCCc1ccc(C(=O)NC(=S)Nc2ccc(NC(=O)CCCCN(C)C)cc2)cc1', 'fold change (FC)', 1.2),
  ('Cc1ccc(C(=O)NC(=S)Nc2ccc(NC(=O)CCCCN(C)C)cc2)cc1', 'fold change (FC)', 1.1);
